# assayComment: Pharmacokinetic studies of MBZ formulations
# Type: in vivo, athymic mice
# testContext: athymic, mouse, plasma, oral, 40 mg/kg, MBZ 40 mg/kg oral gavage, methylcellulose formulation; read-out: mean plasma exposure at 8 hours
quantityKind: concentration at 8 h

compound | quantityKind | reportedResult
COC(=O)Nc1nc2ccc(C(=O)c3ccccc3)cc2[nH]1 [MBZ] | concentration at 8 h | 473 ng/mL

----------
# tgt: BRAFWT (Homo sapiens, UniProt P15056)
# Sequence (P15056 whole entry): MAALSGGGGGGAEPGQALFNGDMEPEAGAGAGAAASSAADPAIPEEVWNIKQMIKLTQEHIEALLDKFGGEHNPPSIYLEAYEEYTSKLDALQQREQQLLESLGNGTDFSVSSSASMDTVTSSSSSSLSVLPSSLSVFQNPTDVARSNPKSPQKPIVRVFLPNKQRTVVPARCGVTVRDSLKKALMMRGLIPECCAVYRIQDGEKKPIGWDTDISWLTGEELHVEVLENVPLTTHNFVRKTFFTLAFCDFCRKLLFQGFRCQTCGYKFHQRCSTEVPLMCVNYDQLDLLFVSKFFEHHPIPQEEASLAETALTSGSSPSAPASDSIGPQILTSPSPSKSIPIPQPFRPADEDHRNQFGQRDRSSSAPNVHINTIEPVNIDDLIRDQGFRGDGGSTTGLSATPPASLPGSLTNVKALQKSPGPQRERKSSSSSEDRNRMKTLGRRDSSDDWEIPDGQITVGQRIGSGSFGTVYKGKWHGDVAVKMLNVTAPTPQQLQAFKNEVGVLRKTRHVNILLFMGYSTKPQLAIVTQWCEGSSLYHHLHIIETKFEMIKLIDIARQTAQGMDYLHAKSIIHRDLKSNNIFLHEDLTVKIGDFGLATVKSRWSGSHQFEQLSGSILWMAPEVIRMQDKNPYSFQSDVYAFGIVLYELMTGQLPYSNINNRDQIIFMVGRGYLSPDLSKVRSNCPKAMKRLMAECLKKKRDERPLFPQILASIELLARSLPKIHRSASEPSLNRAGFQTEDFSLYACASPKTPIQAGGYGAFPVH
# assayComment: In-vitro binding affinity of MBZ (FIG. 1C)

structureAsSmiles | Kd
COC(=O)Nc1nc2ccc(C(=O)c3ccccc3)cc2[nH]1 | 230 nM

----------
# assayComment: Pharmacokinetic studies of MBZ formulations
# Format: in vivo, athymic mice
# testContext: athymic, mouse, plasma, oral, 40 mg/kg, MBZ 40 mg/kg oral gavage, oleic acid formulation; read-out: mean plasma exposure at 8 hours
# Procedure: In pharmacokinetic (PK) studies, MBZ was administered to athymic mice (described below) by oral gavage at a dose of 40 mg/kg in three different formulations (methylcellulose, oleic acid, or sesame oil/PBS) or methylcellulose in combination with cimetidine. […]
quantityKind: concentration at 8 h (ng/mL)

structureAsSmiles | quantityKind | quantityUnit | reportedResult
COC(=O)Nc1nc2ccc(C(=O)c3ccccc3)cc2[nH]1 | concentration at 8 h | ng/mL | 1390
